tested on: Staphylococcus aureus; test: Bacterial lysis (broth dilution) assay, MBC; type: cell-based; conditions: 0 mM NaCl (10 mM phosphate buffer); 99.9% killing
Where no end group is shown, it is not given here.
measure-name: MBC, Staphylococcus aureus, 0 mM NaCl (nM)
Report only the number, with the unit nM understood.

Below, 2 substances whose answers are already recorded.
Q) # input substance: VRRVVRRVVRVVRRVVRRVRRVVRRVVRVV RRVVRR (VRRVVRRVVRVVRRVVRRVRRVVRRVVRVVRRVVRR; Antimicrobial peptide) [LBU-3] ; wanted: its MBC, Staphylococcus aureus, 0 mM NaCl
A) 1500

Q) Proceed to RVIRVVQRACRAIRHIVRRIRQGLRRIL (RVIRVVQRACRAIRHIVRRIRQGLRRIL; Antimicrobial peptide) [SA-5]
A) 1000

---
Q) # input substance: RWIRVVQRWCRAIRHIWRRIRQGLRRWLRVV [WLSA-5, RWIRVVQRWCRAIRHIWRRIRQGLRRWLRVV] ; wanted: its MBC, Staphylococcus aureus, 0 mM NaCl
A) 1000
